kon reference
biological target: T1, His-tagged ILT4 protein extracellular domain: ILT4-His (human, UniProt Q8N423 22-460); assay: SPR (Biacore), antibody captured on Protein A chip, ILT4-His as analyte, 1:1 model
T1 construct: Expressed in 293 cells; also called human ILT4-His protein
T1 sequence (Q8N423 other isoform, or with tags, fused parts or gaps limits assumed): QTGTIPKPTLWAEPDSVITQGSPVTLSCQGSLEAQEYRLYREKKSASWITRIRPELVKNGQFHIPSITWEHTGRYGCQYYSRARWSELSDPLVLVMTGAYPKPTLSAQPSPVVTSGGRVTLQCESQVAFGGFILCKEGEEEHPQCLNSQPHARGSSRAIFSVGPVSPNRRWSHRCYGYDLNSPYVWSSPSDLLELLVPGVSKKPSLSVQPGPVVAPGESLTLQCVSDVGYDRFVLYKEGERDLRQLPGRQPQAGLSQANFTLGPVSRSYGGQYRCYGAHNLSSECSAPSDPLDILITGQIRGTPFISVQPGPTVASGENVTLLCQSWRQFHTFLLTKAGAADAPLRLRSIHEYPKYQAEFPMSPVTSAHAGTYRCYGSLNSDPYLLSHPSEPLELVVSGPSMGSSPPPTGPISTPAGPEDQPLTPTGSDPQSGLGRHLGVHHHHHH
Only the number, expressed in M⁻¹ s⁻¹, is required.

humanized antibody huP2-G9 (antibody, human IgG1, kappa, L234A L235A, V domains shown, Full chains; also called P2-G9H1L2) VH: EVQLQESGPGLVKPSQTLSLTCTVSGSSITSGYYWNWIRQHPGKGLEWIGYLSYDGSNNYNPSLKNLVTISRDTSKNQFSLKLSSVTAADTAVYYCAREGAHYSGTLSWFAYWGQGTLVTVSS VL: DIQMTQSPSSLSASVGDRVTITCRASENIYSNLAWYQQKPGKSPKLLVYAATNLADGVPSRFSGSGSGTDYTLTISSLQPEDFATYYCQHFWDTPYTFGGGTKVEIKR : 999000

Data request: // fetch kon given entry humanized antibody huP2-E3 (antibody, human IgG4 S228P, kappa, F234A L235A, V domains shown, Full chains; The constant region is hIgG1(LALA) or hIgG4(LALA) with a kappa CL; also called P2-E3H6L2) VH: EVQLVQSGAEVKKPGASVKVSCKASGYTFTDYYMNWVKQAPGQRLEWMGDINPNSGGTSYNQKFKGRVTITVDKSGSTAYMELSSLRSEDTAVYYCARGGVTTVVATYWYFDVWGQGTTVTVSS VL: DIQMTQSPSSLSASVGDRVTITCRASENIYSNLAWYQQKPGKSPKLLVYAATNVADGVPSRFSGSGSGTDYTLTISSLQPEDFATYYCQQFWDTPFTFGQGTKLEIKR
Data returned: 1.01e+06

Data request: // fetch kon given entry humanized antibody huP1-G7 (antibody, human IgG4 S228P, kappa, F234A L235A, V domains shown, Full chains; also called P1-G7H1L1) VH: EVQLQESGPGLVKPSQTLSLTCTVSGYSITSGYYWNWIRQHPGKGLEWIGYISYDGGNNYNPFLKNRVTISRDTSKNQFSLKLSSVTAADTAVYYCAREGGSSWEYYGMDYWGQGTTVTVSS VL: DIQMTQSPSSLSASVGDRVTITCRASENIYRNLAWYQQKPGKAPKLLLYAATNLADGVPSRFSGSGSGTDFTLTISSLQPEDFATYYCQQFWGSPYTFGGGTKVEIKR
Data returned: 457000
